Tested on: A549
test method notes: Cytotoxicity against human A549 cells assessed as reduction in cell viability using compound addition to cell culture cells in log phase of growth and incubated for 48 hrs by MTT assay
Assay type: functional, cell-based
condition description: Homo sapiens, A549, 48 h; read-out: IC50
parameter: IC50 (µM)
Could you give me the number in µM? Just the number is fine.

- CC1=C(C=O)C(=O)O[C@@H]([C@@H](C)[C@H]2CC[C@H]3[C@@H]4C[C@H]5O[C@]56[C@@H](O)C=CC(=O)[C@]6(C)[C@H]4CC[C@]23C)C1: 13.5

response.value for CC1=C(CO)C(=O)O[C@@H]([C@@H](C)[C@H]2CC[C@H]3[C@@H]4C[C@H]5O[C@]56[C@@H](O)C=CC(=O)[C@]6(C)[C@H]4CC[C@]23C)C1 [WITHAFERIN A] (field: IC50) = 10.1

response.value for CC1=C(COC(=O)c2ccccc2)C(=O)O[C@@H]([C@@H](C)[C@H]2CC[C@H]3[C@@H]4C[C@H]5O[C@]56C(=O)C=CC(=O)[C@]6(C)[C@H]4CC[C@]23C)C1 (field: IC50) = 2.3

###

System: MCF7
test method notes: Cytotoxicity against human MCF7 cells assessed as reduction in cell viability using compound addition to cell culture cells in log phase of growth and incubated for 48 hrs by MTT assay
Format: functional, cell-based
condition description: Homo sapiens, MCF7, 48 h; read-out: IC50
Measured IC50, listed per entry.
Could you give me the number in µM? Just the number is fine.

* COc1ccc(C(=O)OCC2=C(C)C[C@H]([C@@H](C)[C@H]3CC[C@H]4[C@@H]5C[C@H](Cl)[C@]6(O)[C@@H](O)C=CC(=O)[C@]6(C)[C@H]5CC[C@]34C)OC2=O)cc1 | 6.8
* CC1=C(CO[Si](C)(C)C(C)(C)C)C(=O)O[C@@H]([C@@H](C)[C@H]2CC[C@H]3[C@@H]4C[C@H](Cl)[C@]5(O)[C@@H](O)C=CC(=O)[C@]5(C)[C@H]4CC[C@]23C)C1 | 3.1

Please examine the following record next.
response.value for CC1=C(CCl)C(=O)O[C@@H]([C@@H](C)[C@H]2CC[C@H]3[C@@H]4C[C@H]5O[C@]56[C@@H](O)C=CC(=O)[C@]6(C)[C@H]4CC[C@]23C)C1 (field: IC50) = 1

###

Measured pIC50, listed per entry.
Test system: A549
test method notes: Cytotoxicity against human A549 cells assessed as reduction in cell viability using compound addition to cell culture cells in log phase of growth and incubated for 48 hrs by MTT assay
Assay type: functional, cell-based
condition description: Homo sapiens, A549, 48 h; read-out: IC50
pIC50: −log10 of the molar value. Numbered stars: 1 amine (or outer) side, 2 acyl side, 3 side chain; on linkers, the order of the positions; unused ones are H or OH. Bridge positions count the residues as written; N and C are the ends. Square brackets hold non-standard residues; d marks the D form. Peptide text beside a SMILES is read from it. I, II: the chains in the order shown. Actinocin(1to9) = Cc1c2oc3c(C)ccc(C(=O)[*:2])c3nc-2c(C(=O)[*:1])c(N)c1=O; NMeV = CN[C@H](C(=O)O)C(C)C; Sar = CNCC(=O)O

Some solved cases for reference:
* CC1=C(CO)C(=O)O[C@@H]([C@@H](C)[C@H]2CC[C@H]3[C@@H]4C[C@H]5O[C@]56[C@@H](O)CC[C@@H](O)[C@]6(C)[C@H]4CC[C@]23C)C1 | < 4.40
* CO[C@H]1CC(=O)[C@]2(C)[C@H]3CC[C@]4(C)[C@@H]([C@H](C)[C@H]5CC(C)=C(CO)C(=O)O5)CC[C@H]4[C@@H]3C[C@H]3O[C@]32[C@H]1O | < 4.40
* CC1=C(CO)C(=O)O[C@@H]([C@@H](C)[C@H]2CC[C@H]3[C@@H]4C[C@H]5O[C@]56[C@@H](O)[C@H]5O[C@H]5C(=O)[C@]6(C)[C@H]4CC[C@]23C)C1 | < 4.40
* CC1=C(CO)C(=O)O[C@@H]([C@@H](C)[C@H]2CC[C@H]3[C@@H]4C[C@@H](O)[C@]5(C=O)C=CC(=O)[C@]5(C)[C@H]4CC[C@]23C)C1 | < 4.40
* CC1=C(COC(=O)c2ccoc2)C(=O)O[C@@H]([C@@H](C)[C@H]2CC[C@H]3[C@@H]4C[C@H](Cl)[C@]5(O)[C@@H](O)C=CC(=O)[C@]5(C)[C@H]4CC[C@]23C)C1 | < 4.40
* Cc1c2oc3c(C)ccc(C(=O)N[C@@H]4C(=O)N[C@H](C(C)C)C(=O)N5CCC[C@H]5C(=O)N(C)CC(=O)N(C)[C@@H](C(C)C)C(=O)O[C@@H]4C)c3nc-2c(C(=O)N[C@@H]2C(=O)N[C@H](C(C)C)C(=O)N3CCC[C@H]3C(=O)N(C)CC(=O)N(C)[C@@H](C(C)C)C(=O)O[C@@H]2C)c(N)c1=O [DACTINOMYCIN] (I: T[dV]P[Sar][NMeV] / II: T[dV]P[Sar][NMeV]; ester I:1-I:C, II:1-II:C; linker I:N-II:N via Actinocin(1to9)) | 8.10
* CCC(=O)OCC1=C(C)C[C@H]([C@@H](C)[C@H]2CC[C@H]3[C@@H]4C[C@H]5O[C@]56C(=O)C=CC(=O)[C@]6(C)[C@H]4CC[C@]23C)OC1=O | 5.08
* C[C@@H]([C@H]1CC[C@H]2[C@@H]3C[C@H]4O[C@]45[C@@H](O)[C@H]4O[C@H]4C(=O)[C@]5(C)[C@H]3CC[C@]12C)[C@H]1C[C@@]2(C)O[C@@]2(CO)C(=O)O1 | < 4.40

response.value for CC1=C(CO)C(=O)O[C@@H]([C@@H](C)[C@H]2CC[C@H]3[C@@H]4C[C@H]5O[C@]56[C@@H](O)[C@@H](NCc5ccccc5)CC(=O)[C@]6(C)[C@H]4CC[C@]23C)C1 (field: pIC50) = 4.86

response.value for CC1=C(COC(=O)c2ccccc2)C(=O)O[C@@H]([C@@H](C)[C@H]2CC[C@H]3[C@@H]4C[C@H]5O[C@]56[C@@H](O)C=CC(=O)[C@]6(C)[C@H]4CC[C@]23C)C1 (field: pIC50) = 5.82

response.value for CC1=C(C)C(=O)O[C@@H]([C@@H](C)[C@H]2CC[C@H]3[C@@H]4C[C@H]5O[C@]56[C@@H](O)CC[C@@H](O)[C@]6(C)[C@H]4CC[C@]23C)C1 (field: pIC50) = < 4.40

The reported numbers originate from ChEMBL document CHEMBL4190346.
